Tested target: T1, Native human folate receptor alpha (FRα) on SKOV3 cells (human (endogenous in SKOV3), UniProt P15328 25-234)
T1 construct: folate receptor alpha, endogenous on the surface of SKOV3 human epithelial ovarian cancer cells; also called natural FRα protein on cell surface; source: endogenous, on SKOV3 cells
T1 sequence (P15328 25-234): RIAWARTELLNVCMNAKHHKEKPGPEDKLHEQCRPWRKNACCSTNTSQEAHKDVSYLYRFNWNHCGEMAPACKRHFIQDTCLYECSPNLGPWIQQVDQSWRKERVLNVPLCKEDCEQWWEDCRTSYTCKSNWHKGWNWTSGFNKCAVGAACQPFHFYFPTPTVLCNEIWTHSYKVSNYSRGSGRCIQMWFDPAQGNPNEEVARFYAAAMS
Method notes: flow cytometry on cells; purified phage clones incubated with SKOV3 cells (1 × 10^6 cells/mL, 2% FCS-PBS) at 4 °C for 1 h; mouse anti-M13 antibody and FITC goat anti-mouse antibody; M13KE as negative control
Setup conditions: one partner purified
Provide the recorded percent specific binding to SKOV3 cells for the entries that follow.
Entry rule: numbers only, all in %.

Prompt: Note down percent specific binding to SKOV3 cells recorded for MHTAPGWGYRLS (dodecapeptide selected by phage display; printed in three-letter code; the synthetic FITC peptide is m18; also called C7 phage clone; source: M13 phage clone from the Ph.D.-12 library, amplified in E. coli ER2738; purified phage for flow cytometry) [Phage clone C7]
Response: 51.2

Prompt: Note down percent specific binding to SKOV3 cells recorded for MNPYPRTPWPHV (dodecapeptide selected by phage display; printed in three-letter code; source: M13 phage clone from the Ph.D.-12 library, amplified in E. coli ER2738; purified phage for flow cytometry) [Phage clone G12]
Response: 41.8

Prompt: Note down percent specific binding to SKOV3 cells recorded for GALLPSMNKGHW (dodecapeptide selected by phage display; printed in three-letter code; source: M13 phage clone from the Ph.D.-12 library, amplified in E. coli ER2738; purified phage for flow cytometry) [Phage clone B8/H1/G4]
Response: 31.8

Prompt: Note down percent specific binding to SKOV3 cells recorded for YTNPYYSSHTRN (dodecapeptide selected by phage display; printed in three-letter code; source: M13 phage clone from the Ph.D.-12 library, amplified in E. coli ER2738; purified phage for flow cytometry) [Phage clone G8]
Response: 36
